B1: DFFB (parent)
chain: TLVEAIKEQDGREVDWEYFYGLLF

variants of: B1; assay: protein stability index of a GFP-peptide fusion (GPS, HEK-293T) (PSI 1-6); higher = more stable; settings: c terminus: a fixed tail appended;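 further: lentivirally expressed fusions sorted by FACS into six bins by GFP to DsRed ratio, PSI derived from sequencing read proportions per bin multiplied by bin number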
propertyLabel: protein stability index
Please respond with just the number, no unit label.

Y18G ... 1.71
G21T ... 1.88
Q9A ... 1.37

For the variant "E13D" , what protein stability index is on record?
2.1

For the variant "W16A" , what protein stability index is on record?
2.06

For the variant "F19Q" , what protein stability index is on record?
3.44
